src = patent US20220267469A1

subject of test: T1, Biotinylated human BSSL (human, UniProt P19835 21-753, Biotinylated on glycosacarides, 30-40 biotin/BSSL)
T1 construct: hBSSL biotinylated in house; also called b-hBSSL; human BSSL-biotin
T1 sequence: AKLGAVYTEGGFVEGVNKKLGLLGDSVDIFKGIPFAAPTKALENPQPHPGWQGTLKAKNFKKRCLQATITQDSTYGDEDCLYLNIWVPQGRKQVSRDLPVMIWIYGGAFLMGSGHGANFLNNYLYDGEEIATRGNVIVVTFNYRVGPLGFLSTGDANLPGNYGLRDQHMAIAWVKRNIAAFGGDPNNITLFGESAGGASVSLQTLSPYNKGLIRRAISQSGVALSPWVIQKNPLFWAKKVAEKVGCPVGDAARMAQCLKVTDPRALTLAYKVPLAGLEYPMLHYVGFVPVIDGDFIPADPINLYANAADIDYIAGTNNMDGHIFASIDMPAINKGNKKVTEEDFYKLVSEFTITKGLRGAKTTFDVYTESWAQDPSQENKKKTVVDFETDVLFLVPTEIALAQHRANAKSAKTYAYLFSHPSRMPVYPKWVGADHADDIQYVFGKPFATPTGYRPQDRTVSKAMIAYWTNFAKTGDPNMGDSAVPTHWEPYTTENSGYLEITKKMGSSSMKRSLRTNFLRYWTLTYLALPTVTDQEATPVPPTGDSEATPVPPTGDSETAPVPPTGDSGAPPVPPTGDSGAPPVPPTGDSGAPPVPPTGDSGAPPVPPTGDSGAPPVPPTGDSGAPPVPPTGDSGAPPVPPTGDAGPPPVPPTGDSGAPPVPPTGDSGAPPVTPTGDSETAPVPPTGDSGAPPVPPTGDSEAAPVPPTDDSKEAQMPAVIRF
assay explanation: flow cytometry displacement assay; 2.0 ug antibody, 1 ug b-hBSSL
assay readout: percentage reduction of b-hBSSL binding to CD14+ monocytes (%)

INSERT INTO measurements (binder, result) VALUES
  ('S-SL048-41 hIgG4 S228P (antibody, V domains shown, Tested as human IgG4 S228P) VH: QVQLVQSGAEVKKPGASVKVSCKASGYTFTSYNMHWVRQAPGQGLEWIGVIYPGDGATSYAQKFKGRVTMTRDTSTSTVYMELSSLRSEDTAVYYCARDYYGSSPLGYWGQGTLVTVSS VL: DIQMTQSPSSLSASVGDRVTITCRASSSISYMNWYQQKPGKAPKLLIYATSRLPSGVPSRFSGSGSGTDFTLTISSLQPEDFATYYCHQRSSSPTFGQGTKLEIK', 71);
